- System: hOB SFRP mRNA
- experimentNotes: Northern blot analysis of hOB SFRP mRNA expression
- Format: cell-based, human
- assayConditions: hOB-03-C5 cells, increasing concentrations, 24 hr; read-out: EC50 for up-regulation of hOB SFRP mRNA expression
- Description: The hOB SFRP gene fragment was identified using RADE (rapid analysis of differential expression) technology as described by Shiue 1997 Drug Develop. Res. 41: 142–159, the whole of which is incorporated herein. Three hOB cell lines (hOB-03-C5, hOB-03-CE6 and hOB-01-C1), representing three distinct stages of differentiation (proliferative, mature and preosteocytic, respectively) were used to isolate and identify SFRP. […]
outcomeMeasure: EC50

Qu. Return reported EC50; argument: CCCCC[C@H](O)/C=C/[C@H]1[C@H](O)CC(=O)[C@@H]1C/C=C\CCCC(=O)O [PGE2, prostaglandin E2]
Ans. ~8 nM
